Molecular target: L-lactate dehydrogenase (Plasmodium falciparum (isolate CDC / Honduras))
Assay: PfLDH activity inhibition – cell lysate, 3D7 strain, counter-screen for P. falciparum growth inhibition project (AID 2304);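 further: 0% = vehicle and 100% = reference inhibitor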
Settings: P. falciparum 3D7 crude extract, LDH APAD/NBT absorbance; at 2 µM; stronger effect = higher value
Measured inhibition of individual entries

# MOLECULE, inhibition / %
rows = [
    ("COc1ccc(CC(Cc2ccc(OC)cc2)NCC(O)c2cccc(Cl)c2)cc1 (centres undefined)", -4),
    ("CC(=O)Nc1ccc(C(=O)Nc2ccc(-c3csc(-c4nc5ccccc5[nH]4)c3)cc2)cn1", -3),
    ("COc1ccc2nccc([C@@H](O)CN3CCC(NC(=O)C(c4cc5ccccc5o4)N4CCN(Cc5ccccc5)CC4)CC3)c2c1 (some centres undefined)", -5),
    ("O=C(Nc1ccc(OC2CCN(Cc3ccc(F)cc3)C2)c(Cl)c1)c1ccccc1 (centres undefined)", 0),
    ("CS(=O)(=O)N1CC2(CCN(CCC(NC(=O)Nc3ccccc3)c3ccc(Cl)c(Cl)c3)CC2)c2ccccc21 (centres undefined)", 5),
    ("COc1cc(OC)cc(-c2nnc(Sc3ccc(C#N)c([N+](=O)[O-])c3)n2C)c1", 3),
    ("CC[C@H](C)CNC(=O)c1cccc(-c2cccc(CN3CCC(N4CCCC4)CC3)c2)n1", 1),
    ("Nc1ncc(-c2ccc3[nH]ccc3c2)c2ccc(-c3ccncc3)cc12", -6),
    ("O=C(Nc1ccc2c(c1)CCNCC2)c1ccc(-c2ccc(Cl)cc2)cc1", 0),
    ("CCn1ccc2c(N3CCCS3(=O)=O)cc(C(=O)N[C@@H](Cc3ccccc3)[C@H](O)CNC(C)(C)c3cccc(OC)c3)cc21", -8),
    ("Cc1cc(N[C@@H](CC(C)C)C(=O)NCc2cccc(F)c2)nc(NCCc2ccc(F)cc2)n1", -2),
    ("Cc1cccc2[nH]c(-c3cccc(-c4cccc(NC(=O)CNC(=O)c5ccc(O)cc5)c4)c3)nc12", -1),
    ("N#Cc1ccc(C=Cc2nccc3c2[nH]c2ccccc23)cc1", 0),
    ("CCc1cc2c3c(N)nc(N)nc3ccc2n1C(CC)CC", 5),
    ("Cc1cc(C)c(CON2C(N)=NC(N)=NC2(C)C)cc1C", 2),
    ("O=C(c1ccc(Cl)cc1)C1CCN(CCCOc2ccc3c(c2)CCNCC3)CC1", -2),
    ("c1ccc(-c2ccc(-c3csc(Nc4ccncc4)n3)cc2)cc1", 3),
    ("Oc1ccc(CCNc2nc(N/N=C/c3ccc(Cl)cc3)nc(N3CCNCC3)n2)cc1", 5),
    ("CC(C)(C)OC(=O)NCc1ccc(Nc2nnc(-c3cccc(C(=O)NCCC(c4ccccc4)c4ccccc4)c3)o2)cc1", -2),
]

====

Experiment: human hepatoma cell viability loss – ATP luminescence, cytotoxicity control for P. falciparum antimalarial project, primary screen (AID 2303);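 further: 0% = DMSO wells and 100% = digitonin-killed cells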
Conditions: HepG2 viability, 24-48 h, at 10 µM, stronger effect = higher value
// reported inhibition per item

# COMPOUND, UNITS_OF_MEASURE, inhibition
data = [
    ("COc1cc2ccccc2cc1OCCCN1CCN(CC(c2ccc(F)cc2)N2CCN(C(C)C)CC2)CC1 (stereo not given)", "%", 72),
    ("CC(C)NCc1ccc(OCc2cccc(COc3ccc(CNC(C)C)cc3I)c2)c(I)c1", "%", 100),
    ("CCCCCCNC(=O)C(N)CCCC(N)C(=O)NCCCCCC (stereo not given)", "%", -2),
    ("CN1CCN(c2ccnc3ccc(NC(=O)Nc4ccccc4Br)cc23)CC1", "%", 4),
    ("c1ccc(Cn2nnnc2-c2cccc(Nc3ccnc4cc(-c5nccs5)ccc34)c2)cc1", "%", 51),
    ("Cc1nnc(Sc2ncnc3scc(-c4ccc(F)cc4)c23)s1", "%", 13),
    ("COc1ccc(Cc2nc(N=C(N)Nc3ccccc3)ccc2OC)cc1", "%", 40),
    ("CCCC(=O)Nc1ccc(OCCCN(Cc2ccccc2F)c2ccc(C#N)c(C(F)(F)F)c2)cc1", "%", 7),
    ("N#Cc1ccc2[nH]cc(-c3cn4cc(SC5CCCC5)ccc4n3)c2c1", "%", 1),
    ("CCNc1cc(C(=O)N[C@@H](Cc2ccccc2)[C@H](O)CNC(C)(C)CCCC(C)C)c(F)c(N2CCCS2(=O)=O)c1", "%", -2),
    ("Cc1cc(N[C@@H](CC(C)C)C(=O)Nc2ccccc2)nc(NCCc2ccc(F)cc2)n1", "%", 8),
    ("N=C(N)c1cc(Br)cc(NC(=O)Nc2cc(Br)cc(C(=N)N)c2)c1", "%", 0),
    ("O=C(Nc1cccc(-c2ccc(-c3nc4ccc(F)cc4[nH]3)cc2)c1)c1ccoc1", "%", 39),
    ("N#Cc1ccc2c(c1)CCN(CCC1CCC(NC(=O)c3cc4ccccc4[nH]3)CC1)CC2 (stereo not given)", "%", 17),
    ("O=C(CCc1ccccc1)N[C@H](Cc1c[nH]c2ccccc12)C(=O)N1CCC(NCc2ccc3c(c2)Cc2ccccc2-3)CC1", "%", 53),
    ("c1ccc(-c2ccc3c(Nc4ccc5[nH]ncc5c4)ccnc3c2)nc1", "%", 99),
    ("CCc1ccc(NC(=O)N(CCCn2ccnc2)Cc2csc(-c3ccc(CNCc4ccccc4)cc3)n2)cc1", "%", 9),
    ("Cc1ccc(-n2cc(CNCCCn3ccnc3)c(-c3cccc(C)c3)n2)cc1", "%", 9),
    ("Cc1noc(C)c1-c1ccc(C(=C2CCCCCC2)c2ccc(O)cc2)cc1", "%", -7),
    ("C=CCN1C(=O)c2[nH]nc(-c3cc(C)c(C)cc3O)c2C1c1cccc(Br)c1 (stereo not given)", "%", -14),
]

====

Assay: inhibition of 3D7 malaria parasite growth – strain 3D7 (AID 2306);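 further: 0% = DMSO wells and 100% = chloroquine plus artemisinin control wells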
Conditions: P. falciparum 3D7 erythrocytic growth, LDH absorbance, 72 h; at 2 µM; stronger effect = higher value
The source made the active and inactive calls. How the calls were made is not given here.
Measured growth inhibition values are reported for all entries that follow.

# COMPOUND, growth inhibition
rows = [
    ("CCCC(C(=O)OCCNC)(c1ccccc1)c1ccccc1", "98% (active)"),
    ("O=C(NC1CCN(c2ccnc3cc(Cl)ccc23)C1)c1ccc(C(F)(F)F)cc1 (stereo not given)", "101% (active)"),
    ("CCOC(=O)NC1=NC(C)(C)N(OCCCOc2ccc(C)cc2C)C(NC(=O)OCC)=N1", "95% (active)"),
    ("Cn1nccc1C(=O)NCCNCc1ccc(-c2ccc(-c3nc4ccc(F)cc4[nH]3)cc2)cc1", "101% (active)"),
    ("Cc1cccc2[nH]c(-c3ccc(-c4cccc(CNCCc5ccncc5)c4)cc3)nc12", "101% (active)"),
    ("COC(=O)c1ccc2nc(-c3ccc(/C=C/C(=O)NC4CCN(Cc5ccccc5)CC4)cc3)[nH]c2c1", "100% (active)"),
    ("CC(C)CCN1CCC(Oc2ccc(NC(=O)c3cccs3)cc2Cl)CC1", "97% (active)"),
    ("CCN(CC)CCN(CCN(CC)CC)c1ccc(-c2nc3cc(Cl)c(Cl)cc3[nH]2)cc1", "101% (active)"),
    ("O=C(Nc1ccnc2ccccc12)NC1CCN(Cc2ccccc2)CC1", "96% (active)"),
    ("CCOc1ccc(OCC)c(N2CCN(CCCCNC(=O)c3ccc(NC(=O)c4ccc(Cl)cc4)cc3)CC2)c1", "97% (active)"),
]

====

Listed below: inhibition values for each entry.
Biological target: L-lactate dehydrogenase (Plasmodium falciparum (isolate CDC / Honduras))
Assay: PfLDH activity inhibition – cell lysate, 3D7 strain, counter-screen for P. falciparum growth inhibition project (AID 2304);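 further: 0% = vehicle and 100% = reference inhibitor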
Details: P. falciparum 3D7 crude extract, LDH APAD/NBT absorbance; at 2 µM; stronger effect = higher value
MEASURED_PROPERTY: inhibition (%)

# COMPOUND, MEASURED_NUMBER
records = [
    ("O=C(Cc1cccc(Cl)c1)Nc1cccc(-c2c[nH]c3nc(Nc4cccc(O)c4)ncc23)c1", 3),
    ("O=c1cc(NCCC(CNCCc2ccccc2)NCc2cc(Br)cc(Br)c2)[nH]c2ccccc12 (stereo not drawn)", -6),
    ("CCn1cc2c3c(cc(C(=O)N[C@@H](Cc4ccccc4)[C@H](O)CNCc4cccc(OC)c4)cc31)N(C)S(=O)(=O)CC2", 0),
    ("Cc1ccccc1C(=O)NC(NC(=S)Nc1ccc([N+](=O)[O-])cc1)C(Cl)(Cl)Cl (stereo not drawn)", 0),
    ("O=C(NCCCCN1CCC(c2ccc3c(c2OCC2CC2)CCCC3)CC1)c1ccc(NC(=O)c2ccc(Cl)cc2)cc1", -4),
    ("CCN1CCC(N(Cc2ccc(-c3ccc(C(F)(F)F)cc3)o2)C(=O)Cn2c(CCc3cccc(F)c3F)nc(=O)c3ccccc32)CC1", -1),
    ("C=CCCCNCC(NCCCNc1cc(=O)c2ccccc2[nH]1)c1cc(Br)cc(Br)c1 (stereo not drawn)", -1),
    ("O=C(Nc1ccc2c(ccn2C2CCCN(Cc3cc(F)cc(F)c3F)CC2)c1)c1ccco1 (stereo not drawn)", -1),
    ("N#Cc1ccc(N2CCN(Cc3cccc(-c4ccc(-c5nc6ccccc6[nH]5)cc4)c3)CC2)nc1", -1),
    ("O=C(Nc1ccc(Cn2ncc(N3CCCNCC3)c(Cl)c2=O)cc1)Nc1cc(Cl)cc(Cl)c1", 3),
    ("Nc1nccc2ccc(-c3ccc(OCc4ccccc4)cc3)cc12", -8),
    ("CC(C)C[C@H](NC(=O)c1cc2ccccc2s1)C(=O)N[C@H]1CCN(Cc2ccc(OCCN3CCNCC3)c3ccccc23)C1", 3),
    ("COc1cc(NCCCCNc2ccc(Cl)c(Cl)c2)nc2ccccc12", 2),
    ("NC(=O)c1cccc(C(=O)Nc2cccc(-c3cccc(-c4nc5ccc(C(F)(F)F)cc5[nH]4)c3)c2)c1", -5),
    ("Cc1ccccc1C1CCN(C2CCC(NC(=O)c3ccc(-c4cccs4)s3)CC2)CC1 (stereo not drawn)", -2),
    ("CCCCCCCN1CC[C@H](NC(=O)Nc2ccnc3ccc(OC)cc23)[C@H](CO)C1", -3),
    ("COc1ccc2c(NN=Cc3cccc([N+](=O)[O-])c3)cc(C)nc2c1", -6),
    ("O=C(NC(NC(=S)Nc1ccc([N+](=O)[O-])cc1)C(Cl)(Cl)Cl)c1cccc(Cl)c1 (stereo not drawn)", 0),
]
